Tested on: HeLa cells
Experiment: MTT antiproliferative assay, HeLa
Assay type: cell-based, human
Details: Homo sapiens, read-out: In vitro antiproliferative activity IC50, HeLa
MEASURED ATTRIBUTE: IC50

Here's what some known entries look like.
[[record]]
molecule = "COc1cccc(/C=N/NC(=O)c2ccc(N3N=C(c4cccc(Cl)c4)CC3c3ccc4ccccc4c3)cc2)c1 (stereo not shown)"
measured_attribute = "IC50"
result = "46.4 µM"

[[record]]
molecule = "CCOc1ccc(C2=NN(c3ccc(C(=O)N/N=C/c4ccc(OC)cc4)cc3)C(c3ccc4ccccc4c3)C2)cc1 (stereo not shown)"
measured_attribute = "IC50"
result = "15.3 µM"

[[record]]
molecule = "COc1ccc(/C=N/NC(=O)c2ccc(N3N=C(c4ccc(Cl)cc4)CC3c3ccc4ccccc4c3)cc2)cc1 (stereo not shown)"
measured_attribute = "IC50"
result = "35.3 µM"

[[record]]
molecule = "C#Cc1cccc(Nc2ncnc3cc(OCCOC)c(OCCOC)cc23)c1 [Erlotinib, reference compound]"
measured_attribute = "IC50"
result = "0.17 µM"

[[record]]
molecule = "COc1cccc(/C=N/NC(=O)c2ccc(N3N=C(c4cc(OC)c(OC)c(OC)c4)CC3c3ccc4ccccc4c3)cc2)c1 (stereo not shown)"
measured_attribute = "IC50"
result = "> 100 µM"

[[record]]
molecule = "COc1ccc(/C=N/NC(=O)c2ccc(N3N=C(c4ccccc4F)CC3c3ccc4ccccc4c3)cc2)cc1 (stereo not shown)"
measured_attribute = "IC50"
result = "61.9 µM"


Then there is this molecule:
The observed IC50 for COc1cccc(/C=N/NC(=O)c2ccc(N3N=C(c4ccc(Cl)cc4)CC3c3ccc4ccccc4c3)cc2)c1 (stereo not shown) when tested with HeLa cells stands at 37.4 µM

###

System: A549 cells
Assay: MTT antiproliferative assay, A549
Type: cell-based, human
Conditions: Homo sapiens, read-out: In vitro antiproliferative activity IC50, A549
Method: IC50 values of the test compounds against A549, MCF-7, Hela and HepG2 cells were obtained from State Key Laboratory of Pharmaceutical Biotechnology, Nanjing University, and were determined by a standard (MTT)-based colorimetric assay (Beyotime Inst. Biotech., Nanjing, China). […] Optical absorbance was measured at 570 nm on a microplate reader (Bio-Rad, Hercules, CA, USA). […]
# pIC50 listing for each entry below
In simple prose, pIC50 is minus the logarithm base ten of a concentration in moles per litre.

Here's what some known entries look like.
[[record]]
compound = "COc1ccc(/C=N/NC(=O)c2ccc(N3N=C(c4ccc(F)cc4)CC3c3ccc4ccccc4c3)cc2)cc1 (stereo not drawn)"
numeric_result = 4.36

[[record]]
compound = "CCOc1ccc(C2=NN(c3ccc(C(=O)N/N=C/c4cccc(OC)c4)cc3)C(c3ccc4ccccc4c3)C2)cc1 (stereo not drawn)"
numeric_result = 4.97

[[record]]
compound = "COc1cccc(/C=N/NC(=O)c2ccc(N3N=C(c4ccc(Br)cc4)CC3c3ccc4ccccc4c3)cc2)c1 (stereo not drawn)"
numeric_result = 4.66

[[record]]
compound = "COc1ccc(/C=N/NC(=O)c2ccc(N3N=C(c4cccc(F)c4)CC3c3ccc4ccccc4c3)cc2)cc1 (stereo not drawn)"
numeric_result = 4.25

[[record]]
compound = "COc1ccc(/C=N/NC(=O)c2ccc(N3N=C(c4ccc(Br)cc4)CC3c3ccc4ccccc4c3)cc2)cc1 (stereo not drawn)"
numeric_result = 4.71

[[record]]
compound = "COc1ccc(/C=N/NC(=O)c2ccc(N3N=C(c4cccc(Cl)c4)CC3c3ccc4ccccc4c3)cc2)cc1 (stereo not drawn)"
numeric_result = 4.48

[[record]]
compound = "COc1ccc(/C=N/NC(=O)c2ccc(N3N=C(c4cc(OC)c(OC)c(OC)c4)CC3c3ccc4ccccc4c3)cc2)cc1 (stereo not drawn)"
numeric_result = 4.12

[[record]]
compound = "COc1ccc(/C=N/NC(=O)c2ccc(N3N=C(c4ccc(Cl)c(Cl)c4)CC3c3ccc4ccccc4c3)cc2)cc1 (stereo not drawn)"
numeric_result = 4.61

[[record]]
compound = "COc1cccc(/C=N/NC(=O)c2ccc(N3N=C(c4ccc(F)cc4)CC3c3ccc4ccccc4c3)cc2)c1 (stereo not drawn)"
numeric_result = 4.35

[[record]]
compound = "COc1ccc(/C=N/NC(=O)c2ccc(N3N=C(c4ccc(Cl)cc4)CC3c3ccc4ccccc4c3)cc2)cc1 (stereo not drawn)"
numeric_result = 4.54


The observed pIC50 for COc1cccc(/C=N/NC(=O)c2ccc(N3N=C(c4cccc(F)c4)CC3c3ccc4ccccc4c3)cc2)c1 (stereo not drawn) when tested with A549 cells stands at 4.23

The observed pIC50 for COc1ccc(/C=N/NC(=O)c2ccc(N3N=C(c4ccccc4F)CC3c3ccc4ccccc4c3)cc2)cc1 (stereo not drawn) when tested with A549 cells stands at 4.31

The observed pIC50 for COc1cccc(/C=N/NC(=O)c2ccc(N3N=C(c4ccc(Cl)cc4)CC3c3ccc4ccccc4c3)cc2)c1 (stereo not drawn) when tested with A549 cells stands at 4.52

The observed pIC50 for COc1cccc(/C=N/NC(=O)c2ccc(N3N=C(c4cc(F)cc(F)c4)CC3c3ccc4ccccc4c3)cc2)c1 (stereo not drawn) when tested with A549 cells stands at 4.38

The observed pIC50 for COc1cccc(/C=N/NC(=O)c2ccc(N3N=C(c4ccccc4F)CC3c3ccc4ccccc4c3)cc2)c1 (stereo not drawn) when tested with A549 cells stands at 4.30

###

Test system: HepG2 cells
Test: MTT antiproliferative assay, HepG2
Type: cell-based, human
Conditions: Homo sapiens, read-out: In vitro antiproliferative activity IC50, HepG2
# IC50 listing for each entry below
Give just the number in µM; leave the unit off.

Here's what some known entries look like.
[[record]]
molecule = "COc1ccc(/C=N/NC(=O)c2ccc(N3N=C(c4ccc(Br)cc4)CC3c3ccc4ccccc4c3)cc2)cc1 (stereo not drawn) [Compound H32]"
measured_target = "HepG2 cells"
numeric_result = 32.9

[[record]]
molecule = "COc1cccc(/C=N/NC(=O)c2ccc(N3N=C(c4ccc(Cl)c(Cl)c4)CC3c3ccc4ccccc4c3)cc2)c1 (stereo not drawn) [Compound H15]"
measured_target = "HepG2 cells"
numeric_result = 38.9

[[record]]
molecule = "COc1ccc(/C=N/NC(=O)c2ccc(N3N=C(c4cc(OC)c(OC)c(OC)c4)CC3c3ccc4ccccc4c3)cc2)cc1 (stereo not drawn) [Compound H23]"
measured_target = "HepG2 cells"
numeric_result = 89.5

[[record]]
molecule = "COc1cccc(/C=N/NC(=O)c2ccc(N3N=C(c4ccc(Cl)cc4)CC3c3ccc4ccccc4c3)cc2)c1 (stereo not drawn) [Compound H14]"
measured_target = "HepG2 cells"
numeric_result = 40.2

[[record]]
molecule = "CCOc1ccc(C2=NN(c3ccc(C(=O)N/N=C/c4cccc(OC)c4)cc3)C(c3ccc4ccccc4c3)C2)cc1 (stereo not drawn) [Compound H8]"
measured_target = "HepG2 cells"
numeric_result = 19.8

[[record]]
molecule = "COc1cccc(/C=N/NC(=O)c2ccc(N3N=C(c4cccc(Cl)c4)CC3c3ccc4ccccc4c3)cc2)c1 (stereo not drawn) [Compound H13]"
measured_target = "HepG2 cells"
numeric_result = 45.4

[[record]]
molecule = "C#Cc1cccc(Nc2ncnc3cc(OCCOC)c(OCCOC)cc23)c1 [Erlotinib, reference compound]"
measured_target = "HepG2 cells"
numeric_result = 0.1

[[record]]
molecule = "COc1ccc(/C=N/NC(=O)c2ccc(N3N=C(c4ccc(C)cc4)CC3c3ccc4ccccc4c3)cc2)cc1 (stereo not drawn) [Compound H20]"
measured_target = "HepG2 cells"
numeric_result = 0.21


The observed IC50 for COc1ccc(/C=N/NC(=O)c2ccc(N3N=C(c4ccc(F)cc4)CC3c3ccc4ccccc4c3)cc2)cc1 (stereo not drawn) [Compound H27] when tested with HepG2 cells stands at 62.9

The observed IC50 for COc1cccc(/C=N/NC(=O)c2ccc(N3N=C(c4ccc(Br)cc4)CC3c3ccc4ccccc4c3)cc2)c1 (stereo not drawn) [Compound H16] when tested with HepG2 cells stands at 34.2

The observed IC50 for COc1cccc(/C=N/NC(=O)c2ccc(N3N=C(c4cccc(F)c4)CC3c3ccc4ccccc4c3)cc2)c1 (stereo not drawn) [Compound H10] when tested with HepG2 cells stands at 92.5

The observed IC50 for COc1ccc(/C=N/NC(=O)c2ccc(N3N=C(c4cccc(F)c4)CC3c3ccc4ccccc4c3)cc2)cc1 (stereo not drawn) [Compound H26] when tested with HepG2 cells stands at 80.1

The observed IC50 for COc1cccc(/C=N/NC(=O)c2ccc(N3N=C(c4cc(F)cc(F)c4)CC3c3ccc4ccccc4c3)cc2)c1 (stereo not drawn) [Compound H12] when tested with HepG2 cells stands at 52.3

The observed IC50 for COc1ccc(/C=N/NC(=O)c2ccc(N3N=C(c4cc(F)cc(F)c4)CC3c3ccc4ccccc4c3)cc2)cc1 (stereo not drawn) [Compound H28] when tested with HepG2 cells stands at 48.1

The observed IC50 for CCOc1ccc(C2=NN(c3ccc(C(=O)N/N=C/c4ccc(OC)cc4)cc3)C(c3ccc4ccccc4c3)C2)cc1 (stereo not drawn) [Compound H24] when tested with HepG2 cells stands at 18.6
